molecular target: Tyrosine-protein kinase Lck (Homo sapiens, UniProt P06239)
Sequence (P06239 whole entry): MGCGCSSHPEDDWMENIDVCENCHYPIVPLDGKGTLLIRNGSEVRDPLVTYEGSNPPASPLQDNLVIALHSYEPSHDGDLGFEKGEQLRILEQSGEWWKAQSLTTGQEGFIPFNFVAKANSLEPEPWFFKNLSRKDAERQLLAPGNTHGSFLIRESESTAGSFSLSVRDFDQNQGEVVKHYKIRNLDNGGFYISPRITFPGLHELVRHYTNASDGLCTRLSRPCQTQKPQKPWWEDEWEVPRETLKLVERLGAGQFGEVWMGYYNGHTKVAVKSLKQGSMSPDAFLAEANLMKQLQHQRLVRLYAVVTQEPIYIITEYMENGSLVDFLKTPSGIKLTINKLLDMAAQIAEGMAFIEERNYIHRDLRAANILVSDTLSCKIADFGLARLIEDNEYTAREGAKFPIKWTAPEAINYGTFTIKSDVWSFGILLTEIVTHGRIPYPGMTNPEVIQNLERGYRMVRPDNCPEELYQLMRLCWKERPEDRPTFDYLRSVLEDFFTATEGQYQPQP
Where a SMILES comes first, the peptide text is derived from it. [ ]: non-standard residue; d: D form. The star is where a group is joined. pY = N[C@@H](Cc1ccc(OP(=O)(O)O)cc1)C(=O)O; Dopa = N[C@@H](Cc1ccc(O)c(O)c1)C(=O)O; Caffeoyl = O=C(/C=C/c1ccc(O)c(O)c1)*; X1 = O=C(Cc1cc(=O)oc2cc(O)ccc12)*

>  <compound>
CC[C@H](C)[C@H](NC(=O)[C@H](CCC(=O)O)NC(=O)[C@H](CCC(=O)O)NC(=O)[C@H](Cc1ccc(OP(=O)(O)O)cc1)NC(C)=O)C(=O)N[C@@H](CCC(=O)O)C(=O)O (Ac-[pY]EEIE-OH)

>  <IC50 [nM]>
1300

$$$$
>  <compound>
CC[C@H](C)[C@H](NC(=O)[C@H](CCC(=O)O)NC(=O)[C@H](CCC(=O)O)NC(=O)[C@H](Cc1ccc(O)c(O)c1)NC(=O)Cc1cc(=O)oc2cc(O)ccc12)C(=O)N[C@@H](CCC(=O)O)C(=O)O (X1-[Dopa]EEIE-OH)

>  <IC50 [nM]>
58000

$$$$
>  <compound>
CC[C@H](C)[C@H](NC(=O)[C@H](CCC(=O)O)NC(=O)[C@H](CCC(=O)O)NC(=O)[C@H](Cc1ccc(OP(=O)(O)O)cc1)NC(=O)/C=C/c1ccc(O)c(O)c1)C(=O)N[C@@H](CCC(=O)O)C(=O)O (Caffeoyl-[pY]EEIE-OH)

>  <IC50 [nM]>
42

$$$$
>  <compound>
CC[C@H](C)[C@H](NC(=O)[C@H](CCC(=O)O)NC(=O)[C@H](CCC(=O)O)NC(=O)[C@H](Cc1ccc(OP(=O)(O)O)cc1)NC(=O)Cc1cc(=O)oc2cc(O)ccc12)C(=O)N[C@@H](CCC(=O)O)C(=O)O (X1-[pY]EEIE-OH)

>  <IC50 [nM]>
81

$$$$

* * *

Quick record: IC50, Tyrosine-protein kinase Fyn (Homo sapiens, UniProt P06241).
Where a SMILES comes first, the peptide text is derived from it. [ ]: non-standard residue; d: D form. The star is where a group is joined. pY = N[C@@H](Cc1ccc(OP(=O)(O)O)cc1)C(=O)O; Dopa = N[C@@H](Cc1ccc(O)c(O)c1)C(=O)O; Caffeoyl = O=C(/C=C/c1ccc(O)c(O)c1)*; X1 = O=C(Cc1cc(=O)oc2cc(O)ccc12)*
property: IC50 (µM)

>  <compound>
CC[C@H](C)[C@H](NC(=O)[C@H](CCC(=O)O)NC(=O)[C@H](CCC(=O)O)NC(=O)[C@H](Cc1ccc(OP(=O)(O)O)cc1)NC(C)=O)C(=O)N[C@@H](CCC(=O)O)C(=O)O (Ac-[pY]EEIE-OH)

>  <property>
IC50

>  <scale_unit>
µM

>  <number>
1.1

$$$$
>  <compound>
CC[C@H](C)[C@H](NC(=O)[C@H](CCC(=O)O)NC(=O)[C@H](CCC(=O)O)NC(=O)[C@H](Cc1ccc(OP(=O)(O)O)cc1)NC(=O)Cc1cc(=O)oc2cc(O)ccc12)C(=O)N[C@@H](CCC(=O)O)C(=O)O (X1-[pY]EEIE-OH)

>  <property>
IC50

>  <scale_unit>
µM

>  <number>
0.1

$$$$
>  <compound>
CC[C@H](C)[C@H](NC(=O)[C@H](CCC(=O)O)NC(=O)[C@H](CCC(=O)O)NC(=O)[C@H](Cc1ccc(O)c(O)c1)NC(=O)Cc1cc(=O)oc2cc(O)ccc12)C(=O)N[C@@H](CCC(=O)O)C(=O)O (X1-[Dopa]EEIE-OH)

>  <property>
IC50

>  <scale_unit>
µM

>  <number>
77

$$$$
>  <compound>
CC[C@H](C)[C@H](NC(=O)[C@H](CCC(=O)O)NC(=O)[C@H](CCC(=O)O)NC(=O)[C@H](Cc1ccc(O)c(O)c1)NC(=O)/C=C/c1ccc(O)c(O)c1)C(=O)N[C@@H](CCC(=O)O)C(=O)O (Caffeoyl-[Dopa]EEIE-OH)

>  <property>
IC50

>  <scale_unit>
µM

>  <number>
33

$$$$
